tested on: Receptor-type tyrosine-protein kinase FLT3 (Homo sapiens), P36888 [UNDEFINED MUTATION]; assay: Inhibition of FLT3 ITD mutant (unknown origin) using TAMRA-Src- tide as substrate at 12.5 uM after 1 hr by fluorescence polarization assay relative to control
Sequence (P36888 whole entry, looked up, change not shown): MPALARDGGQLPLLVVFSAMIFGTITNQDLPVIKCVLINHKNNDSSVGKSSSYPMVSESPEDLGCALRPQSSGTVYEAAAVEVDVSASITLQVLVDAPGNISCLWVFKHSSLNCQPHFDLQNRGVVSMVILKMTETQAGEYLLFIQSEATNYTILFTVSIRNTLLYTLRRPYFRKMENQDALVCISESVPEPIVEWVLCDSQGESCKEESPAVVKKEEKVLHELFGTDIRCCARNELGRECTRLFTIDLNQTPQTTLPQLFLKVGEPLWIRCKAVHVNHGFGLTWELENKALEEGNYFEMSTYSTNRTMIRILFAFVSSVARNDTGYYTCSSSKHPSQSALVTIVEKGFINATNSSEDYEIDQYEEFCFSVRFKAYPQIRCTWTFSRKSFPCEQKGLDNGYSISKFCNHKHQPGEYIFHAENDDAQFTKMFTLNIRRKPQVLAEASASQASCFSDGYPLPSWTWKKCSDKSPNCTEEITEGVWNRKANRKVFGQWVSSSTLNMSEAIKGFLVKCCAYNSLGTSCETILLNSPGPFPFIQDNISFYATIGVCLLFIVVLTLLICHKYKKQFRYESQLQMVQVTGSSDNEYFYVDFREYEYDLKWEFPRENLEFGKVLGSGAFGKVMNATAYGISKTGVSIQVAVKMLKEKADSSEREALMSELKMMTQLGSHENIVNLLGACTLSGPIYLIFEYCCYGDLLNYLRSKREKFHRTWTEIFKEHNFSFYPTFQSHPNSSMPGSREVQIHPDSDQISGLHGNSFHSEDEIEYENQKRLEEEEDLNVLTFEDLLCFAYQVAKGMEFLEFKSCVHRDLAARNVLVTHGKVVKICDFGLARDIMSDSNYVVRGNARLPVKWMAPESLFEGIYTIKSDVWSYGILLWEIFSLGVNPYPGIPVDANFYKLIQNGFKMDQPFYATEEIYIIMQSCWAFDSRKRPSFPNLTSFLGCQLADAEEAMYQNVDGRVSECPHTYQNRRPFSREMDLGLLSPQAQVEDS
Items are presented alongside their recorded inhibition.
Write the value in % as a bare number.

INSERT INTO assay_data (chemical_smiles, parameter_measured, display_unit, result_number) VALUES
  ('COC(=O)CC[C@@H](NC(=O)c1c(C)[nH]c(/C=C2\C(=O)Nc3ccc(C(=O)OC)cc32)c1C)C(=O)OC', 'inhibition', '%', 93.5),
  ('COC(=O)CC[C@@H](NC(=O)c1c(C)[nH]c(/C=C2\C(=O)Nc3ccc(C(=O)N[C@@H](Cc4ccccc4)C(=O)OC)cc32)c1C)C(=O)OC', 'inhibition', '%', 94.8),
  ('COC(=O)[C@@H](Cc1ccccc1)NC(=O)c1ccc2c(c1)/C(=C/c1[nH]c(C)c(C(=O)N[C@H](Cc3ccccc3)C(=O)OC)c1C)C(=O)N2', 'inhibition', '%', 85.8);

The compound COC(=O)CC[C@@H](NC(=O)c1ccc2c(c1)/C(=C/c1[nH]c(C)c(C(=O)N[C@H](Cc3ccccc3)C(=O)OC)c1C)C(=O)N2)C(=O)OC , tested on Receptor-type tyrosine-protein kinase FLT3 (Homo sapiens), P36888 [UNDEFINED MUTATION], showed inhibition of 32.8

Query COC(=O)CC[C@@H](NC(=O)c1ccc2c(c1)/C(=C/c1[nH]c(C)c(C(=O)O)c1C)C(=O)N2)C(=O)OC on Receptor-type tyrosine-protein kinase FLT3 (Homo sapiens), P36888 [UNDEFINED MUTATION]; inhibition returned: 12.1

Fill in: Receptor-type tyrosine-protein kinase FLT3 (Homo sapiens), P36888 [UNDEFINED MUTATION] inhibition for CCOC(=O)c1c(C)[nH]c(/C=C2\C(=O)Nc3ccc(C(=O)N[C@@H](Cc4ccccc4)C(=O)OC)cc32)c1C = 74.2

---

inhibition values for the compounds below.
system: Receptor-type tyrosine-protein kinase FLT3 (Homo sapiens), P36888 [UNDEFINED MUTATION]; test: Inhibition of FLT3 ITD mutant (unknown origin) using TAMRA-Src- tide as substrate at 12.5 uM after 1 hr by fluorescence polarization assay relative to control
Respond with the bare value in %.

INSERT INTO results (chemical_smiles, parameter_measured, display_unit, result_number) VALUES
  ('COC(=O)CC[C@H](NC(=O)c1ccc2c(c1)/C(=C/c1[nH]c(C)c(C(=O)N[C@@H](Cc3ccccc3)C(=O)OC)c1C)C(=O)N2)C(=O)OC', 'inhibition', '%', 79.4);

Now turn to the next compound.
Reported inhibition for COC(=O)CC[C@H](NC(=O)c1ccc2c(c1)/C(=C/c1[nH]c(C)c(C(=O)O)c1C)C(=O)N2)C(=O)OC was 28.8

---

In this section we review reported solubility at 24 h, 120 µM values for a set of compounds.
test: Aqueous solubility in pH 7.4 phosphate buffer at 120 uM after 24 hrs by HPLC method; format: physicochemical

Known results for compounds:
INSERT INTO measurements (compound, result) VALUES
  ('COC(=O)c1ccc2c(c1)/C(=C/c1[nH]c(C)c(C(=O)N[C@@H](Cc3ccccc3)C(=O)OC)c1C)C(=O)N2', '< 5 µM'),
  ('CCOC(=O)c1c(C)[nH]c(/C=C2\C(=O)Nc3ccc(C(=O)N[C@@H](Cc4ccccc4)C(=O)O)cc32)c1C', '20 µM'),
  ('COC(=O)[C@H](Cc1ccccc1)NC(=O)c1ccc2c(c1)/C(=C/c1[nH]c(C)c(C(=O)O)c1C)C(=O)N2', '20 µM');

What the record says about CCOC(=O)c1c(C)[nH]c(/C=C2\C(=O)Nc3ccc(C(=O)N[C@@H](Cc4ccccc4)C(=O)OC)cc32)c1C : solubility at 24 h, 120 µM is < 1 µM

Value of solubility at 24 h, 120 µM reported for the compound COC(=O)CC[C@H](NC(=O)c1c(C)[nH]c(/C=C2\C(=O)Nc3ccc(C(=O)OC)cc32)c1C)C(=O)OC is < 5 µM

The compound identified as Cc1[nH]c(/C=C2\C(=O)Nc3ccc(C(=O)N[C@@H](Cc4ccccc4)C(=O)O)cc32)c(C)c1C(=O)N[C@@H](Cc1ccccc1)C(=O)O registered its solubility at 24 h, 120 µM at ≥ 120 µM

Given item COC(=O)CC[C@H](NC(=O)c1c(C)[nH]c(/C=C2\C(=O)Nc3ccc(C(=O)O)cc32)c1C)C(=O)OC , the value recorded as its solubility at 24 h, 120 µM is ≥ 120 µM

Summary for this compound, COC(=O)CC[C@H](NC(=O)c1ccc2c(c1)/C(=C/c1[nH]c(C)c(C(=O)N[C@@H](Cc3ccccc3)C(=O)OC)c1C)C(=O)N2)C(=O)OC : solubility at 24 h, 120 µM is < 1 µM

Sure, the documented solubility at 24 h, 120 µM for CCOC(=O)c1c(C)[nH]c(/C=C2\C(=O)Nc3ccc(C(=O)N[C@@H](CCC(=O)OC)C(=O)OC)cc32)c1C is < 1 µM

Measured solubility at 24 h, 120 µM, COC(=O)c1ccc2c(c1)/C(=C/c1[nH]c(C)c(C(=O)N[C@@H](Cc3ccccc3)C(=O)O)c1C)C(=O)N2 : ≥ 120 µM

Source listed as ChEMBL document CHEMBL4190404.
